assay: Biodistribution in Jurkat tumor-bearing CB-17 SCID mice; assay type: in vivo; conditions: female, CB-17 SCID, mouse, in vivo, iv, total radioactivity, % iD/g Tumor
Non-standard residues stand in square brackets, D forms with d. Residues, ends and D or L forms follow the SMILES beside them. Groups on a side chain read outwards from the residue. *: point of attachment. DOTA = O=C(O)CN1CCN(CC(=O)O)CCN(CC(=O)*)CCN(CC(=O)O)CC1; dTyr(3-I) = N[C@H](Cc1ccc(O)c(I)c1)C(=O)O; 2Nal = N[C@@H](Cc1ccc2ccccc2c1)C(=O)O; dNMeOrn = CN[C@H](CCCN)C(=O)O; HYNIC = NNc1ccc(C(=O)*)cn1; 4Amb = NCc1ccc(C(=O)O)cc1; 4Abz = Nc1ccc(C(=O)O)cc1; dDap = NC[C@@H](N)C(=O)O
Measured tissue uptake at 1 h of individual entries
# number only, unit %ID/g dropped from output

Consider the reported tissue uptake at 1 h for these molecules:
C[C@@H](NC(=O)[C@@H](CCCNC(=N)N)NC(=O)[C@@H](CN)NC(=O)c1ccc(NN)nc1)C(=O)Nc1ccc(C(=O)NCCC[C@@H]2C(=O)N[C@@H](CCCNC(=N)N)C(=O)N[C@@H](Cc3ccc4ccccc4c3)C(=O)NCC(=O)N[C@H](Cc3ccc(O)cc3)C(=O)N2C)cc1 [Tc-CXCR4-13] (cyclo([dY][dNMeOrn]([4Abz-dA-dR-dDap-HYNIC])R[2Nal]G))	8.02
CN1C(=O)[C@@H](Cc2ccc(O)cc2)NC(=O)CNC(=O)[C@H](Cc2ccc3ccccc3c2)NC(=O)[C@H](CCCNC(=N)N)NC(=O)[C@H]1CCCNC(=O)c1ccc(CNC(=O)CN2CCN(CC(=O)O)CCN(CC(=O)O)CCN(CC(=O)O)CC2)cc1 [^68Ga-Pentixafor, metal not drawn, reference compound] (cyclo([dY][dNMeOrn]([4Amb-DOTA])R[2Nal]G))	7.58

Quick check: tissue uptake at 1 h of C[C@@H](NC(=O)[C@@H](CCCNC(=N)N)NC(=O)[C@@H](CN)NC(=O)CN1CCN(CC(=O)O)CCN(CC(=O)O)CCN(CC(=O)O)CC1)C(=O)Nc1ccc(C(=O)NCCC[C@@H]2C(=O)N[C@@H](CCCNC(=N)N)C(=O)N[C@@H](Cc3ccc4ccccc4c3)C(=O)NCC(=O)N[C@H](Cc3ccc(O)c(I)c3)C(=O)N2C)cc1 [CXCR4-DOTA-4 [Lu]] (cyclo([dTyr(3-I)][dNMeOrn]([4Abz-dA-dR-dDap-DOTA])R[2Nal]G)) ? 6.19

Quick check: tissue uptake at 1 h of C[C@@H](NC(=O)[C@@H](CCCNC(=N)N)NC(=O)[C@@H](CN)NC(=O)CN1CCN(CC(=O)O)CCN(CC(=O)O)CCN(CC(=O)O)CC1)C(=O)NCc1ccc(C(=O)NCCC[C@@H]2C(=O)N[C@@H](CCCNC(=N)N)C(=O)N[C@@H](Cc3ccc4ccccc4c3)C(=O)NCC(=O)N[C@H](Cc3ccc(O)c(I)c3)C(=O)N2C)cc1 [CXCR4-DOTA-2 [Lu]] (cyclo([dTyr(3-I)][dNMeOrn]([4Amb-dA-dR-dDap-DOTA])R[2Nal]G)) ? 5.27
